# Subject of test: T1, hPRLR.mFc (soluble dimeric human PRLR) (human)
# T1 construct: dimeric PRLR construct
# T1 chain: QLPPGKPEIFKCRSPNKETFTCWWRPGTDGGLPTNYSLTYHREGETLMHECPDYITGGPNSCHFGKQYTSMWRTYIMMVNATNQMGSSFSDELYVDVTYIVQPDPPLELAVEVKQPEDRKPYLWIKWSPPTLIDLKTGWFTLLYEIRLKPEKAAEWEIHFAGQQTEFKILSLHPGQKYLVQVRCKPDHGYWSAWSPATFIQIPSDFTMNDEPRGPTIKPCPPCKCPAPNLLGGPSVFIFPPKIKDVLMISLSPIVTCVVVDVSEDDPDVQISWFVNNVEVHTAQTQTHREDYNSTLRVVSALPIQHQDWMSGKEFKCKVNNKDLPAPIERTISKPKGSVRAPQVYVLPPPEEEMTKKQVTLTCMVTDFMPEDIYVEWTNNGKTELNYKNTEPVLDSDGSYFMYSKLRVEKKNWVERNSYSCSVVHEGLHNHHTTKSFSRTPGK
# Experiment notes: SPR (Biacore), antibody capture, 37 C
Readout kind: pKd
Please express pKd as -log10 of the molar concentration.

binder="H1H6774P (antibody, human IgG1, V domains shown, human IgG1 Fc (H1H)) VH: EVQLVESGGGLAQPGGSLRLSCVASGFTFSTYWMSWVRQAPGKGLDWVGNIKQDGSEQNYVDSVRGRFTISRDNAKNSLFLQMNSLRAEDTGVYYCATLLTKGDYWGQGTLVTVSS VL: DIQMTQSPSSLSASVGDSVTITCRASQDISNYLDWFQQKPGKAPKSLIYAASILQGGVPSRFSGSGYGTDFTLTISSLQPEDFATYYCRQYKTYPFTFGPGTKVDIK" value=9.86

Inquiry: Provide one value: measured pKd of H1H6959N2 (antibody, human IgG1, V domains shown, also called H2M6959N2) VH: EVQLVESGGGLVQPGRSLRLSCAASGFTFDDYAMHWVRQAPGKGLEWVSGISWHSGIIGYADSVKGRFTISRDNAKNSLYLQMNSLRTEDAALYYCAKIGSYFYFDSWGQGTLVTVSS VL: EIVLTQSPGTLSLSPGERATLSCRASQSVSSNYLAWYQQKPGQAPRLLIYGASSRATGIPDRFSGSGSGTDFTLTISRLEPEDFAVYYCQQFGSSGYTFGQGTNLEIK
Reply text: 8.35
